# TESTED SYSTEM: T1, EBOV VLP (Ebola virus (EBOV), UniProt Q05320 33-676)
# T1 sequence: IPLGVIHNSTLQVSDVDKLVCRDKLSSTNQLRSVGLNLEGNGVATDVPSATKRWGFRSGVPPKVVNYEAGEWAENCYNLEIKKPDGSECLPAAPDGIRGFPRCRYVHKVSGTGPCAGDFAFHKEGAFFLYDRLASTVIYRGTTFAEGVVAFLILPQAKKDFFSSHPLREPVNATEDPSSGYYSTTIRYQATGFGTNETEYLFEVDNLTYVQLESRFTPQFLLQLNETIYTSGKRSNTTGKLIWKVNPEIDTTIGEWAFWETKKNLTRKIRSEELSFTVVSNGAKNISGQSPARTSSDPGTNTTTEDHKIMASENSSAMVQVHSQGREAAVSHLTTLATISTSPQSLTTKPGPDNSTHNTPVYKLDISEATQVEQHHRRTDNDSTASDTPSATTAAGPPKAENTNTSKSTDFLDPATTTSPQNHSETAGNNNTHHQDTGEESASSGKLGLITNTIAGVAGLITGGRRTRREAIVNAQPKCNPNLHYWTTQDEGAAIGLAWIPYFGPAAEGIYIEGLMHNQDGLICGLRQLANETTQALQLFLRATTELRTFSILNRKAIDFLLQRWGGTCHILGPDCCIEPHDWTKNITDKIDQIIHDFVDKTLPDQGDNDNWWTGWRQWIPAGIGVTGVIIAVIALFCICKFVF
# EXPERIMENT DESCRIPTION: ELISA
VALUE TYPE: EC50
Provide the measurement as a number trailed by its unit.

1) FVM06 (antibody, V domains shown) VH: EVQLVQSGAEVKRPGESLTISCKTSGYSFTNYWISWVRQMPGEGLEWMGAIDPSDSDTRYSPSFQGQVTMSADKSITTAYLQWSSLKASDTATYYCVKGSETWGQGVLVTVSS VL: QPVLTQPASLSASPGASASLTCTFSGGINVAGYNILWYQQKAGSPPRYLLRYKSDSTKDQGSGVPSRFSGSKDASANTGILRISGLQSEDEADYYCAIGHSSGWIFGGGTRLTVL : 0.215 nM

Alright, here's another binder for you.
stdin: What does the data say about its EC50? Entry: FVM39 (antibody, V domains shown) VH: EVQLVQSGAEVKRPGESLRISCKTSGYSFTDSWISWVRQMPGKGLEWLGSIYPGDSETKYNPSFQGHVTISADKSVTTTYLKWSSLKASDTATYYCVKGSETWGQGVLVTVSS VL: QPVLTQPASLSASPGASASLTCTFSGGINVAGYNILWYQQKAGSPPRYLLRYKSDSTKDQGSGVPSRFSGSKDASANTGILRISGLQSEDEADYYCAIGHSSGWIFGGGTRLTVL
stdout: 0.08 nM
